- assay details: Plasma protein binding (rapid equilibrium dialysis)
- Assay type: in vitro ADME
- particulars: human, pooled human plasma (50% plasma and 50% isotonic buffer), pH 7.4
measurement type: fraction unbound at 4 h, 10 μM

mol smiles: CC1=C(c2ccco2)CNCC1
measurement: 0.61

----------
- assay details: Caco-2 cells permeability assay
- Assay type: in vitro ADME
- particulars: human, apical-to-basal, 10 μM, pH 7.4

compound: CC1=C(c2ccco2)CNCC1 [Compound 65]
unit label: ×10⁻⁶ cm/s
Papp A→B at 60 min, 10 μM: 77

----------
- target or test system: 5-HT1D receptor (Homo sapiens)
- Construct: TANGO fusion module (own knowledge, Kroeze et al.: C-terminal V2 tail, TEV site and tTA); 1000000068
- Sequence (P28221 whole entry, the tested form may be a part): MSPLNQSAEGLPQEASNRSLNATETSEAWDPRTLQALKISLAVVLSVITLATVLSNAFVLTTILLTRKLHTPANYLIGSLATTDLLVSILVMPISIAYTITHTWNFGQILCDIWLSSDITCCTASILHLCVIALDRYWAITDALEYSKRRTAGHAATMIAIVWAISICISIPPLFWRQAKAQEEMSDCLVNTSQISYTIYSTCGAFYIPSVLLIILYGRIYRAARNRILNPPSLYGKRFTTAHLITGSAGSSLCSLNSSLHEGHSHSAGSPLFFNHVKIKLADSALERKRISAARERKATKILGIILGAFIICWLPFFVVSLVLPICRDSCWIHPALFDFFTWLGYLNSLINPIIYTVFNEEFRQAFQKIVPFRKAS
- assay details: PRESTO-TANGO β-arrestin recruitment

compound: CC1=C(c2ccco2)CNCC1 [Compound 65]
EC50: > 1000 nM

compound: C1=C(c2ccco2)CNCC1 [Compound 30]
EC50: > 1000 nM

----------
- target or test system: α2A receptor (Homo sapiens)
- Construct: TANGO fusion module (own knowledge, Kroeze et al.: C-terminal V2 tail, TEV site and tTA); 1000000068
- Sequence (P08913 whole entry, the tested form may be a part): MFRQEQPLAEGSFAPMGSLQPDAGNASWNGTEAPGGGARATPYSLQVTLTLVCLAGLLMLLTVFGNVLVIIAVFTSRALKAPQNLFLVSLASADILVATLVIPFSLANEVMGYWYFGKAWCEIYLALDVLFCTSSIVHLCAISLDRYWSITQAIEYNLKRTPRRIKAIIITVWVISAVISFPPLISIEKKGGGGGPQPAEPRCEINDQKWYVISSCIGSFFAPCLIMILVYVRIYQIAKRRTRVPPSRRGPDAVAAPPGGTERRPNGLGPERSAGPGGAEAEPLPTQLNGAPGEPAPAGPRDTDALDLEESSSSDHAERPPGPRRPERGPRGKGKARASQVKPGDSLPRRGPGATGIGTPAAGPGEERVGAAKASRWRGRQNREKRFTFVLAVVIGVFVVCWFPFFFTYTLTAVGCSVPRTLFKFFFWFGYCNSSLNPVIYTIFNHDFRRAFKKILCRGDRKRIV
- assay details: PRESTO-TANGO β-arrestin recruitment
pEC50: −log10 of the molar value.
measurement type: pEC50

mol smiles: CC1=C(c2ccco2)CNCC1
measurement: 6.00

----------
- assay details: In vivo pharmacokinetics, plasma and brain
- Parameters: species or system mice
- particulars: male, C57BL/6, mouse, plasma, ip; mice, intraperitoneal 1 mg/kg; read-out: time to maximum plasma concentration
measurement type: Tmax

molecule: CC1=C(c2ccco2)CNCC1 [Compound 65]
measurement type: Tmax
measurement: ≤ 5 min

----------
- assay details: In vivo pharmacokinetics, plasma and brain
- Parameters: species or system mice
- particulars: male, C57BL/6, mouse, plasma, ip; mice, intraperitoneal 1 mg/kg; read-out: maximum plasma concentration (Cmax)

compound: CC1=C(c2ccco2)CNCC1 [Compound 65]
Cmax: 850 nM

----------
- assay details: Caco-2 cells permeability assay
- Assay type: in vitro ADME
- particulars: human, basal-to-apical, 10 μM, pH 7.4
measurement type: Papp B→A at 60 min, 10 μM (×10⁻⁶ cm/s)

mol smiles: CC1=C(c2ccco2)CNCC1
measurement: 168

----------
- assay details: Caco-2 cells permeability assay
- Assay type: in vitro ADME
- particulars: human

compound: CC1=C(c2ccco2)CNCC1 [Compound 65]
efflux ratio at 60 min, 10 μM: 2.2

----------
- target or test system: hTAAR1 (Homo sapiens)
- Construct: expressed in transfected cells; host or cells: Expi293F
- Sequence (Q96RJ0 1-339): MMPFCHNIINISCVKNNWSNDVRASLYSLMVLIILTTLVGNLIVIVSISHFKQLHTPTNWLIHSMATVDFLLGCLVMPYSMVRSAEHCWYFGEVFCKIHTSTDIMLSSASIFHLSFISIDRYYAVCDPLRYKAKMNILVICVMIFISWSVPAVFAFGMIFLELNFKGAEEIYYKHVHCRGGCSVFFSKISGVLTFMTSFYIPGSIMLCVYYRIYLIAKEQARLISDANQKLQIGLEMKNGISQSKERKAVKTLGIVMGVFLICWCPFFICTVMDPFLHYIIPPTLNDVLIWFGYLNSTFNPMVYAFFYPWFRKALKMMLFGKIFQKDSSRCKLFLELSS
- assay details: G protein (mini-Gs) recruitment luminescence complementation assay, agonist mode
- Format: cell-based
- particulars: Tables S3A/S3B; compounds tested at 20 μM; relative to the maximal effect of β-PEA (20 µM)
Property: Emax; scope: individual compounds
measurement type: Emax (%)

compound: CCN1CCc2ccccc2C(C)C1 (stereo not drawn)
target or test system: hTAAR1 (Homo sapiens)
measurement type: Emax
measurement: 7.6
//
compound: CC(N)c1cc2ccccc2s1 (stereo not drawn)
target or test system: hTAAR1 (Homo sapiens)
measurement type: Emax
measurement: 14.7
//
compound: Cc1cccc(C2CCCN2)c1 (stereo not drawn)
target or test system: hTAAR1 (Homo sapiens)
measurement type: Emax
measurement: 1.3
//
compound: NC1CSc2ccc(Br)cc21 (stereo not drawn)
target or test system: hTAAR1 (Homo sapiens)
measurement type: Emax
measurement: 19.1
//
compound: Cc1c(C(C)N)sc2ccccc12.Cl (stereo not drawn)
target or test system: hTAAR1 (Homo sapiens)
measurement type: Emax
measurement: 8.5
//
compound: c1ccc2c(c1)COC2CNCc1ccn[nH]1 (stereo not drawn)
target or test system: hTAAR1 (Homo sapiens)
measurement type: Emax
measurement: 21.0
//
compound: CNCc1cc2sccc2n1C
target or test system: hTAAR1 (Homo sapiens)
measurement type: Emax
measurement: 40.4
//
compound: CNC(C)c1nc2ccccc2s1 (stereo not drawn)
target or test system: hTAAR1 (Homo sapiens)
measurement type: Emax
measurement: 8.8
//
compound: Br.NCc1cccc2c(O)cccc12
target or test system: hTAAR1 (Homo sapiens)
measurement type: Emax
measurement: 14.9
//
compound: CN1CCC(c2c[nH]c3ccccc23)C1 (stereo not drawn)
target or test system: hTAAR1 (Homo sapiens)
measurement type: Emax
measurement: 27.1
//
compound: CC(CNCc1ncc[nH]1)c1ccncc1 (stereo not drawn)
target or test system: hTAAR1 (Homo sapiens)
measurement type: Emax
measurement: 1.3
//
compound: C[C@@H](NCC1CC1)c1coc2ccccc12
target or test system: hTAAR1 (Homo sapiens)
measurement type: Emax
measurement: 0.9

Source: paper PMC11305387
